System: Pasteurella multocida PM 10775 (080130003051)
Experiment: MIC, broth-microdilution (CLSI), strain PM 10775
Assay type: cell-based
Conditions: Pasteurella multocida 080130003051, BRD field isolate
test_readout: MIC PM 10775

compound: CNC(=O)C(C(=O)NO)N(C)C(=O)c1ccc(C#Cc2ccc(CNCCOC)cc2)cc1 (centres unmarked) [Compound 21]
test_value: 0.4 µM
--
compound: CNC(=O)C(NC(=O)c1ccc(C#Cc2ccc(CNCc3ccco3)cc2)cc1)C(=O)NO (centres unmarked) [Compound 14]
test_value: ≤0.1 µM
--
compound: CNC(=O)C(NC(=O)c1ccc(C#Cc2ccc(CN3CCCC3)cc2)cc1)C(=O)NO (centres unmarked) [Compound 7]
test_value: 0.2 µM
--
compound: C=CCNCc1ccc(C#Cc2ccc(C(=O)NC(C(=O)NC)C(=O)NO)cc2)cc1 (centres unmarked) [Compound 2]
test_value: ≤0.1 µM
--
compound: C#CCNCc1ccc(C#Cc2ccc(C(=O)NC(C(=O)NC)C(=O)NO)cc2)cc1 (centres unmarked) [Compound 20]
test_value: ≤0.1 µM
--
compound: CNC(=O)C(NC(=O)c1ccc(C#Cc2ccc(CNCc3cccs3)cc2)cc1)C(=O)NO (centres unmarked) [Compound 15]
test_value: ≤0.1 µM
--
compound: CCCNCc1ccc(C#Cc2ccc(C(=O)NC(C(=O)NC)C(=O)NO)cc2)cc1 (centres unmarked) [Compound 10]
test_value: 0.2 µM
--
compound: CNC(=O)C(NC(=O)c1ccc(C#Cc2ccc(CNCC3CCCO3)cc2)cc1)C(=O)NO (centres unmarked) [Compound 17]
test_value: ≤0.1 µM
--
compound: CNC(=O)C(NC(=O)c1ccc(C#Cc2ccc(CNC3CCCC3)cc2)cc1)C(=O)NO (centres unmarked) [Compound 9]
test_value: 0.2 µM
--
compound: CNC(=O)C(NC(=O)c1ccc(C#Cc2ccc(CNCc3nccs3)cc2)cc1)C(=O)NO (centres unmarked) [Compound 18]
test_value: ≤0.1 µM
--
compound: CNC(=O)C(NC(=O)c1ccc(C#Cc2ccc(CNCc3ccnc(Cl)c3)cc2)cc1)C(=O)NO (centres unmarked) [Compound 12]
test_value: ≤0.1 µM
--
compound: CNC(=O)C(C(=O)NO)N(C)C(=O)c1ccc(C#Cc2ccc(CNC3CCCC3)cc2)cc1 (centres unmarked) [Compound 26]
test_value: 0.4 µM
--
compound: CNC(=O)C(C(=O)NO)N(C)C(=O)c1ccc(C#Cc2ccc(CN3CCCC3)cc2)cc1 (centres unmarked) [Compound 25]
test_value: 0.4 µM
--
compound: CNC(=O)C(NC(=O)c1ccc(C#Cc2ccc(CN3CCOCC3)cc2)cc1)C(=O)NO (centres unmarked) [Compound 4]
test_value: ≤0.1 µM

###

Test system: Pasteurella multocida PM 6267 (P 2225 (L386))
Assay: MIC, broth-microdilution (CLSI), strain PM 6267
Format: cell-based
Details: Pasteurella multocida P 2225 (L386), reference strain (mouse infection strain)
test_readout: MIC PM 6267

molecule: CNC(=O)C(NC(=O)c1ccc(C#Cc2ccc(CN3CCCC3)cc2)cc1)C(=O)NO (stereo not drawn)
test_value: ≤0.1 µM

molecule: CNC(=O)C(NC(=O)c1ccc(C#Cc2ccc(CNCc3cccnc3)cc2)cc1)C(=O)NO (stereo not drawn)
test_value: ≤0.1 µM

molecule: C#CCNCc1ccc(C#Cc2ccc(C(=O)N(C)C(C(=O)NC)C(=O)NO)cc2)cc1 (stereo not drawn)
test_value: 0.4 µM

molecule: CNC(=O)C(NC(=O)c1ccc(C#Cc2ccc(CNCC3CCCO3)cc2)cc1)C(=O)NO (stereo not drawn)
test_value: ≤0.1 µM

molecule: CNC(=O)C(NC(=O)c1ccc(C#Cc2ccc(CNCc3ccccc3)cc2)cc1)C(=O)NO (stereo not drawn)
test_value: ≤0.1 µM

molecule: CNC(=O)C(NC(=O)c1ccc(C#Cc2ccc(CNCCOC)cc2)cc1)C(=O)NO (stereo not drawn)
test_value: 0.2 µM
